Numbers sourced from PubChem BioAssay AID1919016.

Test system: NCI-H196 complex spheroid growth, percent test/control
measurement_notes: Anticancer human tumor NCI-H196 cell line growth inhibition [AhR];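 also: seven days of drug exposure starting three days after plating; 100% = DMSO vehicle control wells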
particulars: second compound 10 µM; first compound 1 µM; stronger effect = lower value
measurement_name: viability, T/C

Worked examples follow.
{"compound": "COc1cccc2c1C(=O)c1c(O)c3c(c(O)c1C2=O)CC(O)(C(=O)CO)CC3OC1CC(N)C(O)C(C)O1 (stereo not drawn) + CC(CO)NC(=O)c1cc(-c2ccc(Cl)cc2)nn(-c2cnn(C)c2)c1=O", "measurement_target": "NCI-H196 complex spheroid growth, percent test/control", "value_measured": "36.6%"}
{"compound": "COc1cc(Nc2ncc3c(n2)-c2ccc(Cl)cc2C(c2c(F)cccc2OC)=NC3)ccc1C(=O)O + Cc1ccccc1N=Nc1ccc(NC(=O)c2ccnn2C)c(C)c1", "measurement_target": "NCI-H196 complex spheroid growth, percent test/control", "value_measured": "91.1%"}

Query compound follows.
Query block: Suppose we examine the compound CC(C)c1c(-c2ccccc2)nc2c(C#N)c[nH]n2c1=O + Cc1cncc(-c2nc(NCCc3c[nH]c4ccccc34)c3ncn(C(C)C)c3n2)c1 ; what viability, T/C value has been reported?
Result block: 86.9%
